Test system: NCI-H196 SCLC complex tumor spheroid viability
Experiment: Anticancer human tumor NCI-H196 cell line growth inhibition;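 also: spheroids exposed to compounds for 7 days before readout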;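 as to viability, T/C: 100% = DMSO vehicle control wells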
Run parameters: second compound 0.003 µM; first compound 0.3 µM; stronger effect = lower value
Method: Multicellular complex tumor spheroid response to DNA repair inhibitors in combination with DNA-damaging drugs This study explores the anticancer activities of DNA-damaging drugs and inhibitors of DNA damage repair, both as single agents and in combinations. […] Twenty-six patient-derived or established malignant cell lines were evaluated representing sarcoma, melanoma, small cell lung cancer (SCLC), non-small cell lung cancer (NSCLC), as well as bladder, ovarian and pancreatic cancers. […]
Could you please report measured viability, T/C for the items listed next?
Numbers only, in %.

Worked set:
# compound Cn1ncnc1[C@H]1c2n[nH]c(=O)c3cc(F)cc(c23)N[C@@H]1c1ccc(F)cc1 + CC[C@@]1(O)C(=O)OCc2c1cc1n(c2=O)Cc2cc3c(CN(C)C)c(O)ccc3nc2-1 ; its viability, T/C = 95.3

# compound CNCc1ccc(-c2cc(-c3nc(-c4ccc(S(=O)(=O)C(C)C)cc4)cnc3N)on2)cc1 + CC[C@@]1(O)C(=O)OCc2c1cc1n(c2=O)Cc2cc3c(CN(C)C)c(O)ccc3nc2-1 ; its viability, T/C = 94.3

# compound CNCc1ccc(-c2cc(-c3nc(-c4ccc(S(=O)(=O)C(C)C)cc4)cnc3N)on2)cc1 + COc1cc2c(cc1O)CCNC21CSC2c3c(OC(C)=O)c(C)c4c(c3C(COC1=O)N1C(O)C3Cc5cc(C)c(OC)c(O)c5C(C21)N3C)OCO4 ; its viability, T/C = 13.2

// below: viability, T/C requested for another compound
# compound Cc1sc2c(c1C)C(c1ccc(Cl)cc1)=NC(CC(=O)Nc1ccc(O)cc1)c1nnc(C)n1-2 (centres undefined) + CC[C@@]1(O)C(=O)OCc2c1cc1n(c2=O)Cc2cc3c(CN(C)C)c(O)ccc3nc2-1 ; its viability, T/C = 70.2

###

System: NCI-H196 SCLC complex tumor spheroid viability
Experiment: Anticancer human tumor NCI-H196 cell line growth inhibition;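 also: spheroids exposed to compounds for 7 days before readout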
Run parameters: curve of first compound; second compound 0.00949 µM
pIC50: −log10 of the molar value.
Could you please report measured pIC50 for the items listed next?

Worked set:
# molecule COc1ccc([C@@H](O)c2cc(-c3ncnc4cc(N5CCOCC5)ccc34)c(F)cc2Cl)nn1 + CC[C@@]1(O)C(=O)OCc2c1cc1n(c2=O)Cc2cc3c(CN(C)C)c(O)ccc3nc2-1 ; its pIC50 = < 5.00

# molecule [2H]c1nc(C)nc([2H])c1-c1cc(NC[C@@H](C)c2cccc3c(C(=O)NC)ccnc23)ncn1 + CC[C@@]1(O)C(=O)OCc2c1cc1n(c2=O)Cc2cc3c(CN(C)C)c(O)ccc3nc2-1 ; its pIC50 = < 5.00

# molecule Cn1ncnc1[C@H]1c2n[nH]c(=O)c3cc(F)cc(c23)N[C@@H]1c1ccc(F)cc1 + CC[C@@]1(O)C(=O)OCc2c1cc1n(c2=O)Cc2cc3c(CN(C)C)c(O)ccc3nc2-1 ; its pIC50 = < 5.52

# molecule Cc1cc(C)c(CNC(=O)c2cc(-c3ccc(CN4CCOCC4)cc3)cc3c2cnn3C2CCCC2)c(=O)[nH]1 + CC[C@@]1(O)C(=O)OCc2c1cc1n(c2=O)Cc2cc3c(CN(C)C)c(O)ccc3nc2-1 ; its pIC50 = < 5.00

# molecule O=C(c1cc(Cc2n[nH]c(=O)c3ccccc23)ccc1F)N1CCN(C(=O)C2CC2)CC1 + CC[C@@]1(O)C(=O)OCc2c1cc1n(c2=O)Cc2cc3c(CN(C)C)c(O)ccc3nc2-1 ; its pIC50 = < 4.52

Please state, for each entry, its recorded pIC50.
1. Cc1sc2c(c1C)C(c1ccc(Cl)cc1)=NC(CC(=O)Nc1ccc(O)cc1)c1nnc(C)n1-2 (stereo not drawn) + CC[C@@]1(O)C(=O)OCc2c1cc1n(c2=O)Cc2cc3c(CN(C)C)c(O)ccc3nc2-1
2. CC(C)n1c(=O)n(C)c2cnc3cc(F)c(-c4ccc(OCCCN5CCCCC5)nc4)cc3c21 + CC[C@@]1(O)C(=O)OCc2c1cc1n(c2=O)Cc2cc3c(CN(C)C)c(O)ccc3nc2-1
3. COc1cc(C)[nH]c(=O)c1CN1CCc2c(Cl)cc(C(OC)C3COC3)c(Cl)c2C1=O (stereo not drawn) + CC[C@@]1(O)C(=O)OCc2c1cc1n(c2=O)Cc2cc3c(CN(C)C)c(O)ccc3nc2-1

## Result
1: 6.16; 2: < 5.00; 3: < 5.00

###

Test system: NCI-H196 SCLC complex tumor spheroid viability
Experiment: Anticancer human tumor NCI-H196 cell line growth inhibition;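 also: spheroids exposed to compounds for 7 days before readout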;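 as to viability, T/C: 100% = DMSO vehicle control wells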
Run parameters: second compound 0.003 µM; first compound 0.0316 µM; stronger effect = lower value
Measurement kind: viability, T/C (%)
Give bare numbers, in %.

Please state, for each entry, its recorded viability, T/C.
1. [2H]c1nc(C)nc([2H])c1-c1cc(NC[C@@H](C)c2cccc3c(C(=O)NC)ccnc23)ncn1 + COc1cc2c(cc1O)CCNC21CSC2c3c(OC(C)=O)c(C)c4c(c3C(COC1=O)N1C(O)C3Cc5cc(C)c(OC)c(O)c5C(C21)N3C)OCO4
2. CC(C)n1c(=O)n(C)c2cnc3cc(F)c(-c4ccc(OCCCN5CCCCC5)nc4)cc3c21 + COc1cc2c(cc1O)CCNC21CSC2c3c(OC(C)=O)c(C)c4c(c3C(COC1=O)N1C(O)C3Cc5cc(C)c(OC)c(O)c5C(C21)N3C)OCO4
3. COc1ccc([C@@H](O)c2cc(-c3ncnc4cc(N5CCOCC5)ccc34)c(F)cc2Cl)nn1 + COc1cc2c(cc1O)CCNC21CSC2c3c(OC(C)=O)c(C)c4c(c3C(COC1=O)N1C(O)C3Cc5cc(C)c(OC)c(O)c5C(C21)N3C)OCO4
4. COc1ccc([C@@H](O)c2cc(-c3ncnc4cc(N5CCOCC5)ccc34)c(F)cc2Cl)nn1 + CC[C@@]1(O)C(=O)OCc2c1cc1n(c2=O)Cc2cc3c(CN(C)C)c(O)ccc3nc2-1
5. Cc1cc(C)c(CNC(=O)c2cc(-c3ccc(CN4CCOCC4)cc3)cc3c2cnn3C2CCCC2)c(=O)[nH]1 + CC[C@@]1(O)C(=O)OCc2c1cc1n(c2=O)Cc2cc3c(CN(C)C)c(O)ccc3nc2-1
6. CC1COCCN1c1cc(-c2ccnn2C)c2ccnc(-c3ccn[nH]3)c2n1 (stereo unspecified) + CC[C@@]1(O)C(=O)OCc2c1cc1n(c2=O)Cc2cc3c(CN(C)C)c(O)ccc3nc2-1

## Result
[5.55, 7, 8.41, 100, 99.4, 83]
